Tested on: ACHN renal
protocol-description: NCI-60 one-dose screen, 48 h (100 = growth as untreated, 0 = no growth, -100 = all killed)
study-conditions: 10 µM unless noted
The panel holds about 83,000 compounds, 20% with a hit somewhere; the sample as a whole holds those more often.
Form field: growth (one value per entry).
Provide only the numeric value, understood in %.

The following compounds have reported results that may help.
COc1cc(/C=C/C(=O)c2ccccc2O)ccc1OCCCOc1cc2c(cc1OC)C(=O)N1CCC[C@H]1C=N2 = -13.8
Cc1cccc(-n2c(C)nc3ccc(NC(=O)NCCCl)cc3c2=O)c1 = 111
O=C1N=C(c2c(-c3[nH]c(=O)c4ccc(Br)cc4c3O)c(O)c3ccccc3c2O)C(=O)c2cc(Br)ccc21 = -54
NC(N)=NC(N)=Nc1ccccc1-c1ccccc1 = 106
C/C(=N\NC(=O)CC#N)c1cc2cc(Cl)ccc2o1 = 96.1
COc1cc2oc(-c3cccc(NC(=O)Nc4ccc5c(c4)OCO5)c3)cc(=O)c2c(OC)c1OC = 47.1

The compound "CCOc1ccc(/C=C/C=N/NC(N)=S)cc1" showed growth equal to 80.2

growth measured on "O=C1c2ccccc2C(=O)c2c(N=Nc3sc(=O)[nH]c3S)cccc21" = 102

What the record says about COc1ccc(C2NC3=C(CCCC3)C(C#N)(C#N)C2(C#N)C#N)cc1 (centres undefined) : growth is 37.1

So, CN(C)c1ccc(C2CC(c3ccccc3)=NN2/C=C2\SC(=O)NC2=O)cc1 (centres undefined) ? Its growth was 81.5

Data point: "C[N+](C)(C)c1ccc(CC2c3ccccc3-c3ccccc32)cc1" ; growth = 99.9

Notebook: "O=C(Nc1ccc(Br)c(Cl)c1)c1cc(F)ccc1O" , growth read as 0.577

So for COc1ccc(C2CC(c3cccs3)=NN2c2ccc(S(=O)(=O)NC(=O)Nc3ccc(C)cc3)cc2)cc1 (centres undefined) , the logged growth turned out to be 96.6

growth recorded for this compound, "O=C(CCC(=O)OC1CCCC1)OC1CCCC1" , is 95

Reported growth ( COc1ccc(C2CC(c3cccs3)=NN2c2ccc(S(=O)(=O)NC(=O)NCc3cccc(OC)c3)cc2)cc1 (centres undefined) ) = 93.2
